- Test system: SW1353
- Assay notes: relative viability vs DMSO control (72 h) (fraction); higher = more viable cells
- Cond: 0.1235 µM
Reported endpoint: relative viability

| Compound | Reported endpoint | Reported result |
| --- | --- | --- |
| CNC(=O)c1ccc(-c2cnc3ncc(Cc4ccc5ncccc5c4)n3n2)cc1F | relative viability | 1.01 |
| COCc1c(-c2cc3cc(C)cc(OC)c3s2)c2c(N)ncnn2c1CN1CCNC(=O)C1 | relative viability | 0.879 |
| CC(C)NC(=O)C1CCC(n2c(NC(=O)c3ccc(F)cc3)nc3ccc(CN4CCC(C(C)(C)O)CC4)cc32)CC1 (configuration not stated) | relative viability | 0.944 |
| C[C@@H]1COCCN1c1cc(-c2ccnn2C)c2ccnc(-c3ccn[nH]3)c2n1 | relative viability | 0.769 |
| C[C@@H]1CCN(C(=O)CC#N)C[C@@H]1N(C)c1ncnc2[nH]ccc12 | relative viability | 0.989 |
| CCc1cc2c(cc1N1CCC(N3CCOCC3)CC1)C(C)(C)c1[nH]c3cc(C#N)ccc3c1C2=O | relative viability | 0.988 |
| O=C(Cc1ccc(-c2ccc(OCCN3CCOCC3)cc2)cn1)NCc1ccccc1 | relative viability | 0.607 |

----------
Listing of entries alongside the reported relative viability.
- System: HS729
- Assay notes: relative viability vs DMSO control (72 h) (fraction); higher = more viable cells
- Cond: 0.01372 µM

| Compound | relative viability |
| --- | --- |
| CNC(=O)c1cc(Oc2ccc(NC(=O)Nc3ccc(Cl)c(C(F)(F)F)c3)c(F)c2)ccn1 | 0.945 |
| CN1CCC(COc2cnc(-c3cccc(Cn4nc(-c5cccc(C#N)c5)ccc4=O)c3)nc2)CC1 | 0.941 |
| Cc1cnc(Nc2ccc(OCCN3CCCC3)cc2)nc1Nc1cccc(S(=O)(=O)NC(C)(C)C)c1 | 0.924 |
| CC(C)NC(=O)C1CCC(n2c(NC(=O)c3ccc(F)cc3)nc3ccc(CN4CCC(C(C)(C)O)CC4)cc32)CC1 (configuration not stated) | 0.949 |
| CCCS(=O)(=O)Nc1ccc(F)c(C(=O)c2c[nH]c3ncc(-c4ccc(Cl)cc4)cc23)c1F | 0.962 |
| COCc1c(-c2cc3cc(C)cc(OC)c3s2)c2c(N)ncnn2c1CN1CCNC(=O)C1 | 0.92 |
| Cc1nc(NC(=O)N2CCC[C@H]2C(N)=O)sc1-c1ccnc(C(C)(C)C(F)(F)F)c1 | 0.838 |
| CC[C@H](Nc1ncnc2[nH]cnc12)c1nc2cccc(F)c2c(=O)n1-c1ccccc1 | 1.01 |
| CO[C@H]1C[C@@H]2CC[C@@H](C)[C@@](O)(O2)C(=O)C(=O)N2CCCC[C@H]2C(=O)O[C@H]([C@H](C)C[C@@H]2CC[C@@H](OP(C)(C)=O)[C@H](OC)C2)CC(=O)[C@H](C)/C=C(\C)[C@@H](O)[C@@H](OC)C(=O)[C@H](C)C[C@H](C)/C=C/C=C/C=C/1C | 0.923 |
| C=CC(=O)Nc1cccc(Oc2nc(Nc3ccc(N4CCN(C)CC4)cc3)nc3ccsc23)c1 | 0.922 |
| CNC(=O)c1ccc(-c2cnc3ncc(Cc4ccc5ncccc5c4)n3n2)cc1F | 0.935 |
| CC1(C)CNc2cc(NC(=O)c3cccnc3NCc3ccncc3)ccc21 | 0.992 |
